# Test Target: T1, human MT1-MMP hemopexin domain (hemopexin-like repeats, residues Cys319-Gly511), N-terminally His6-tagged … (human, UniProt P50281 319-511)
# T1 construct: range 319-511; Secreted from HEK293 cells; also called hemopexin protein; MT1-MMP (=MMP-14); not shown: N-terminal His6 tag from pEXPR-IBA42 vector
# Procedure Details: FP competition vs MT1-MMP hemopexin domain (tracer not given)
Numbered stars: 1 amine (or outer) side, 2 acyl side, 3 side chain; on linkers, the order of the positions; unused ones are H or OH. Bridge positions count the residues as written; N and C are the ends. Square brackets hold non-standard residues; d marks the D form. Phe(4-Br) = N[C@@H](Cc1ccc(Br)cc1)C(=O)O; 1Nal = N[C@@H](Cc1cccc2ccccc12)C(=O)O; TBMB = c1c(C[*:1])cc(C[*:3])cc1C[*:2]; Tle = CC(C)(C)[C@H](N)C(=O)O
Entries and their pKd
Entry type: numeric. Quantity: pKd, the -log10 of concentration in molar units.

Binder	pKd
Ac-C[dA]NE[1Nal][dA]CEDF[Phe(4-Br)]D[Tle]C-NH2 (linker 1-7-14 via TBMB; SMILES CC(=O)N[C@H]1CSCc2cc3cc(c2)CSC[C@H](NC(=O)[C@@H](C)NC(=O)[C@H](Cc2cccc4ccccc24)NC(=O)[C@H](CCC(=O)O)NC(=O)[C@H](CC(N)=O)NC(=O)[C@@H](C)NC1=O)C(=O)N[C@@H](CCC(=O)O)C(=O)N[C@@H](CC(=O)O)C(=O)N[C@@H](Cc1ccccc1)C(=O)N[C@@H](Cc1ccc(Br)cc1)C(=O)N[C@@H](CC(=O)O)C(=O)N[C@@H](C(C)(C)C)C(=O)N[C@H](C(N)=O)CSC3) [17-69-07-N252, Ac-(17-69-07) D-Ala1 1Nal4 D-Ala5 4BrPhe9 tBuGly11]	9.10

Here's the next entry for you.
Entry Ac-CYNEFGCEDFYD[Tle]C-NH2 (linker 1-7-14 via TBMB) [17-69-07-N100, Ac-(17-69-07) tBuGly11] needs its pKd filled in; supply it.
8.81

src = patent US20200171161A1
